From: ChEMBL document CHEMBL4145466

System: SK-OV-3
Test: Cytotoxicity against human SKOV3 cells after 48 hrs by MTT assay
Type: functional, cell-based
Conditions: SK-OV-3, 48 h
result.type: IC50 (µM)
Numeric only. Scale: µM

Prompt: Answer with the recorded IC50 of COc1ccc(-c2ocnc2-c2cc(OC)c(OC)c(OC)c2)cc1S only.
Completion: 3.18

Prompt: Answer with the recorded IC50 of COc1ccc(-c2ocnc2-c2cc(OC)c(SC)c(OC)c2)cc1O only.
Completion: 0.25

Prompt: Answer with the recorded IC50 of COc1cc(/C=C\c2ccccc2SC)cc(OC)c1OC only.
Completion: 14.1

---

Tested on: SK-OV-3
Assay: Cytotoxicity against human SKOV3 cells after 48 hrs by MTT assay
Format: functional, cell-based
Conditions: SK-OV-3, 48 h
result.type: pIC50
# pIC50 = -log10(concentration in molar units)

Prompt: Look up and report pIC50, with SK-OV-3 as system, for COc1ccc(-c2ocnc2-c2cc(Br)c(OC)c(OC)c2)cc1SC
Completion: 5.94

Prompt: Look up and report pIC50, with SK-OV-3 as system, for COc1cc(-c2ocnc2-c2cc(Br)c(OC)c(OC)c2)ccc1SC
Completion: 5.99

Prompt: Look up and report pIC50, with SK-OV-3 as system, for COc1ccc(-c2ocnc2-c2cc(Br)c(OC)c(OC)c2)cc1OC
Completion: 6.59

Prompt: Look up and report pIC50, with SK-OV-3 as system, for COc1ccc(/C=C\c2cc(OC)c(OC)c(OC)c2)cc1O
Completion: 6.42

Prompt: Look up and report pIC50, with SK-OV-3 as system, for COc1ccc(-c2c(-c3cc(OC)c(SC)c(OC)c3)ncn2C)cc1O
Completion: 5.76

Prompt: Look up and report pIC50, with SK-OV-3 as system, for COc1cc(/C=C\c2cccc(OC)c2SC)cc(OC)c1OC
Completion: 4.84

Prompt: Look up and report pIC50, with SK-OV-3 as system, for COc1cc(-c2ocnc2-c2cc(OC)c(OC)c(OC)c2)ccc1SC
Completion: 5.83

---

Tested on: SK-OV-3
Assay: Cytotoxicity against human SKOV3 cells after 48 hrs by MTT assay
Format: functional, cell-based
Settings: SK-OV-3, 48 h
Kindly supply the reported IC50 values for the records listed here.

Prompt: Answer with the recorded IC50 of COc1cc(-c2ncoc2-c2ccccc2SC)cc(OC)c1OC only.
Completion: > 20 µM

Prompt: Answer with the recorded IC50 of COc1cc(-c2ncn(C)c2-c2ccccc2SC)cc(OC)c1OC only.
Completion: > 20 µM

Prompt: Answer with the recorded IC50 of COc1cc(/C(=C\c2cccc(OC)c2SC)C(=O)O)cc(OC)c1OC only.
Completion: > 20 µM
